// data source = PubChem BioAssay (Tox21)

# ASSAY_NOTES: qHTS assay for small molecules that induce genotoxicity in human embryonic kidney cells expressing luciferase-tagged ATAD5 (AID 651632); further: nearly all actives have a fitted effect of over 15% in size
# ASSAY_CONTEXT: HEK293T ATAD5-luciferase induction, 16 h; series mostly up to 83.3 µM
Inconclusive results are not listed. The source made the active and inactive calls. The call rests on the fitted dose curve; in most records, active means well fitted activation curve with a large enough effect in the repeat runs; inconclusive means weak or mixed curves; inactive means no such curve, though single readings can be large or run the other way.
Classes used: active, inactive

>>> category("CC(C)OC=O")
"inactive"
>>> category("Cc1cccc(N(C)C(=S)Oc2ccc3ccccc3c2)c1")
"inactive"
>>> category("C#C[C@]1(O)CC[C@H]2[C@@H]3CCc4cc(OC)ccc4[C@H]3CC[C@@]21C")
"inactive"
>>> category("O=C(COc1ccc(Cl)cc1)N1CCN(Cc2ccc3c(c2)OCO3)CC1")
"inactive"
>>> category("O=C(c1ccccc1)c1ccccc1O")
"inactive"
>>> category("Cc1ccc(C)c(O)c1C")
"inactive"
>>> category("CCCCC/C=C/C=C/C=O")
"inactive"
>>> category("Nc1ccccc1N")
"active"
>>> category("C[Si](C)(C)O[Si](C)(C)C")
"inactive"
>>> category("COC(=O)Nc1nc2ccc(S(=O)c3ccccc3)cc2[nH]1 (configuration not stated)")
"inactive"
>>> category("CC(CCC(=O)O)(c1ccc(O)cc1)c1ccc(O)cc1")
"inactive"
>>> category("O=Cc1ccccc1O")
"inactive"
>>> category("COc1ccc(C(=O)CC(=O)c2ccc(C(C)(C)C)cc2)cc1")
"inactive"
>>> category("c1ccc2cc(Nc3ccc(Nc4ccc5ccccc5c4)cc3)ccc2c1")
"inactive"
>>> category("C/C=C/C(=O)O")
"inactive"
>>> category("Cc1ncc[nH]1")
"inactive"
>>> category("C[C@]12CC[C@H]3[C@@H](CCC4=CC(=O)CC[C@@]43C)[C@@H]1CC[C@@H]2C(=O)CO")
"inactive"
>>> category("Nc1ccc(Cl)cc1Cl")
"inactive"
>>> category("CCCCC(CC)COP(=O)(OCC(CC)CCCC)OCC(CC)CCCC (configuration not stated)")
"inactive"
>>> category("C=C(C)C1CC=C(C)CC1 (configuration not stated)")
"inactive"
>>> category("CCCC(=O)O")
"inactive"
>>> category("Oc1ccc(O)cc1")
"inactive"
>>> category("c1ccc2c(c1)c1cccc3ccc4cccc2c4c31")
"inactive"
>>> category("CN(C)CCN(Cc1cccs1)c1ccccn1")
"inactive"
>>> category("OC1CCCCCCCCCCC1")
"inactive"
>>> category("O=C=Nc1ccc(Cc2ccc(N=C=O)cc2)cc1")
"inactive"
>>> category("Cc1c(C(N)=O)cc([N+](=O)[O-])cc1[N+](=O)[O-]")
"inactive"
>>> category("COC(=O)C1=C(C)NC(C)=C(C(=O)OCCN(C)Cc2ccccc2)C1c1cccc([N+](=O)[O-])c1 (configuration not stated)")
"inactive"
>>> category("CCCCC(CC)COCC1CO1 (configuration not stated)")
"inactive"
>>> category("Cc1cccc([N+](=O)[O-])c1C")
"inactive"
>>> category("Nc1ccc(Nc2ccccc2)cc1")
"inactive"
>>> category("c1ccc2c(c1)Oc1ccccc1S2")
"inactive"
>>> category("CCCc1c(OCCCCc2nn[nH]n2)ccc(C(C)=O)c1O")
"inactive"
>>> category("O=c1oc(=O)c2cc3c(=O)oc(=O)c3cc12")
"inactive"
>>> category("CCCCOCCOCCOCCO")
"inactive"
>>> category("CC1=CCC(C(C)(C)O)CC1 (configuration not stated)")
"inactive"
>>> category("COc1ccccc1/C=C/C=O")
"inactive"
>>> category("Clc1nc(Cl)c(Cl)c(Cl)c1Cl")
"inactive"
>>> category("CC(C)=CCCC(C)CCO (configuration not stated)")
"inactive"
>>> category("CCCCCCCCCCCO")
"inactive"
>>> category("c1ccc(Nc2ccccc2)cc1")
"inactive"
>>> category("O=[N+]([O-])c1ccc2c(c1)Cc1ccccc1-2")
"inactive"
>>> category("CC(=O)CC/C=C(\\C)CCC=C(C)C")
"inactive"
>>> category("COC(=O)c1ccccc1")
"inactive"
>>> category("Cn1cnc([N+](=O)[O-])c1Sc1ncnc2nc[nH]c12")
"inactive"
>>> category("COC(C)COC(C)COC(C)CO (configuration not stated)")
"inactive"
>>> category("COc1ccc(OC)c(C(O)CNC(=O)CN)c1 (configuration not stated)")
"inactive"
>>> category("CC(C)OB(OC(C)C)OC(C)C")
"inactive"
>>> category("Cc1c(OCC(F)(F)F)ccnc1CS(=O)c1nc2ccccc2[nH]1 (configuration not stated)")
"inactive"
>>> category("O=S(=O)(O)c1ccc(O)cc1")
"inactive"
>>> category("OCCO")
"inactive"
>>> category("CCC(C)c1ccccc1O (configuration not stated)")
"inactive"
